system: IGROV1 ovarian; experiment: NCI-60 one-dose screen, 48 h (100 = growth as untreated, 0 = no growth, -100 = all killed); conditions: 10 µM unless noted
About 83,000 compounds went through this panel and 20% of them were active in at least one assay; those are over-represented in the sample as a whole. Activity calls are given as the source filed them. How the source made its calls: active means growth percent below 10; inactive means the rest.

- Compound: "N#CCC(=O)c1ccccc1"
  growth: "104% (inactive)"
- Compound: "Nc1ccc(S(=O)(=O)F)cc1"
  growth: "105% (inactive)"
- Compound: "O=S1(=O)OCCO1"
  growth: "106% (inactive)"
- Compound: "Cc1cc[c-]cc1.Fc1c[c-]c(-c2ccccn2)c(F)c1.[Pt+2].c1ccc([PH+](c2ccccc2)c2ccccn2)cc1"
  growth: "53.2% (inactive)"
- Compound: "C#COc1cccc(Nc2ncnc3cc(NC(=O)CF)ccc23)c1"
  growth: "52.4% [6.25 µM] (inactive)"
- Compound: "CCC(=O)C(CC(C)N1CCCCCC1)(c1ccccc1)c1ccccc1 (stereo not given)"
  growth: "78.6% (inactive)"
- Compound: "CC1(C)C=Cc2c(ccc3c2[N+]([O-])=C2C3=C[C@@]34NC(=O)[C@]5(CCCN5C3=O)C[C@@H]4C2(C)C)O1"
  growth: "55.6% (inactive)"
- Compound: "C[C@H](O)CCC(=O)c1ccoc1"
  growth: "113% (inactive)"
- Compound: "O=C(O)C(F)F"
  growth: "114% (inactive)"
- Compound: "O=C=Nc1ccc(Br)cc1"
  growth: "112% (inactive)"
- Compound: "NC1CN2CCC1CC2 (stereo not given)"
  growth: "102% (inactive)"
- Compound: "COc1cc(C2C3=C(CCCC3=O)N(CCO)c3cc4c(cc32)CCC4)cc(OC)c1OC (stereo not given)"
  growth: "98.4% (inactive)"
- Compound: "OCCNC1CCCCC1"
  growth: "111% (inactive)"
- Compound: "CC1(C)N=C(N)N=C(N)N1c1ccc(CCC(=O)Nc2ccc(S(=O)(=O)F)cc2)cc1"
  growth: "25.8% (inactive)"
- Compound: "O=C(O)c1cc([N+](=O)[O-])cc([N+](=O)[O-])c1"
  growth: "132% (inactive)"
- Compound: "C[N+]1(CC#CC[N+]2(C)CCCC2)CCCC1"
  growth: "105% (inactive)"
- Compound: "COc1ccc2c(c1)C1(C)CCN(C)CC(C1)C2O (stereo not given)"
  growth: "86.9% (inactive)"
- Compound: "C#Cc1cccc(Nc2nc(Cl)nc3cc(NC(=O)CF)ccc23)c1"
  growth: "75.4% (inactive)"
- Compound: "O=C(O)C(Br)CBr (stereo not given)"
  growth: "104% (inactive)"
- Compound: "COc1cc(-c2ccc(N)c(OC)c2)ccc1N"
  growth: "120% (inactive)"
- Compound: "CO[C@H]1[C@H](O[C@@H]2C[C@@H]3C/C=C/C(=O)O[C@@H](CO)C[C@H](O)[C@@H]4C[C@H](C)[C@H](C/C=C\\C=C\\[C@H](C)C[C@H](C2)O3)O4)O[C@@H](C)[C@H](O)[C@H]1O"
  growth: "71% (inactive)"
- Compound: "CC(=O)Nc1nc2c(s1)C1=CC[C@H]3[C@@H]4CC[C@H](OC(C)=O)[C@@]4(C)CC[C@@H]3[C@@]1(C)CC2"
  growth: "62.5% (inactive)"
- Compound: "C[C@]12CCc3sc(Nc4ccc(F)cc4F)nc3C1=CC[C@@H]1[C@@H]2CC[C@]2(C)C(=O)CC[C@@H]12"
  growth: "62.1% (inactive)"
- Compound: "CO/N=C1\\CC[C@]2(C)[C@H]3CC[C@]4(C)C(=O)CC[C@H]4[C@@H]3C[C@@H]3SC(N)=N[C@@]32C1"
  growth: "101% (inactive)"
- Compound: "O=[N+]([O-])c1ccc(CI)cc1"
  growth: "115% (inactive)"
